Item-by-item account of inhibition at 0.5 µM
# SYSTEM NAME: FLT3 (Homo sapiens, UniProt P36888)
# Construct: purchased Eurofins
# Sequence (P36888 27-993): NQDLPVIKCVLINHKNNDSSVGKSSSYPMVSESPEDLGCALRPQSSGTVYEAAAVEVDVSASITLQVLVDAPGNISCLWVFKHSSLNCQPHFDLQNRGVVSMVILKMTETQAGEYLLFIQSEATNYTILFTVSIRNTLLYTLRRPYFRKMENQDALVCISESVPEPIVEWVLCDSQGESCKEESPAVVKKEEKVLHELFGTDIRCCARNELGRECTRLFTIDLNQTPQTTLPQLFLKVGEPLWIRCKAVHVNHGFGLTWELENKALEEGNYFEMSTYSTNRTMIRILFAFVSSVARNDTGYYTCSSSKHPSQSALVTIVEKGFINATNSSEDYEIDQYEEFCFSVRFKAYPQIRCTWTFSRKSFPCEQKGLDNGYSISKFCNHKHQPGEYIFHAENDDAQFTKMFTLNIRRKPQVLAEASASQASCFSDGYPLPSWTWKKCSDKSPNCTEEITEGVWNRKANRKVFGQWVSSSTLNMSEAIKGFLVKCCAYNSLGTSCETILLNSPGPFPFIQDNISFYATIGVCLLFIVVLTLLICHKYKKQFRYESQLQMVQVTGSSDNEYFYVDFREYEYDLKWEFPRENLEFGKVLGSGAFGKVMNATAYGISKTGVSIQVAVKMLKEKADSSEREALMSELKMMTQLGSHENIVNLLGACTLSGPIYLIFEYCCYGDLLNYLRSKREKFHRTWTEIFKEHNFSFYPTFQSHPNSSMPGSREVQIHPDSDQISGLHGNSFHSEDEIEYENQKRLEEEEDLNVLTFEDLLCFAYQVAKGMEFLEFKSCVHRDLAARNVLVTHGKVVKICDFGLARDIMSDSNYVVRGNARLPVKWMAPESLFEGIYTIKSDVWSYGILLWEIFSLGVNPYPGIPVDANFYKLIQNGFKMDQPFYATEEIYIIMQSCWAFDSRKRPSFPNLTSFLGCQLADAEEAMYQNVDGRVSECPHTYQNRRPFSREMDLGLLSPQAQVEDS
# EXPERIMENTAL PROTOCOL: In vitro kinase activity experiment, FLT3
# Format: biochemical
# APPLIED CONDITIONS: 40 min; inhibition rate of enzyme at 500 nM; measured by Eurofins; read-out: Kinase activity @ 500 nM (%) FLT3
Note: state the figure and append the unit.

Field: example entries. Status: answers known.
Cc1cnc(Nc2ccc(N3CCC(NCCO)CC3)c(F)c2)nc1-c1cnn(C(C)C)c1 :: 94%
CCCCN1CCN(c2ccc(Nc3ncc(F)c(-c4cnn(C(C)C)c4)n3)nc2)CC1 :: 95%
CCCn1cc(-c2nc(Nc3ccc(N4CCN(CC)CC4)cc3F)ncc2F)cn1 :: 40%
Cc1cnc(Nc2ccc(CNC(=O)/C=C/CN(C)C)cc2)nc1-c1cnn(C(C)C)c1 :: 45%
CC(C)n1cc(-c2nc(Nc3ccc(N4CCC(N(C)C)CC4)c(F)c3)ncc2F)cn1 :: 99%

Problem: # query: inhibition at 0.5 µM of entry Cc1cnc(Nc2ccc(NS(=O)(=O)c3ccc4c(c3)CC(=O)N4)c(F)c2)nc1-c1cnn(C(C)C)c1
Solution: 67%

Problem: Requested field: inhibition at 0.5 µM. Item: Cc1cnc(Nc2ccc(NC(=O)[C@H]3CCCN3)c(F)c2)nc1-c1cnn(C(C)C)c1
Solution: 97%

Problem: Please report the recorded inhibition at 0.5 µM for Cc1cnc(Nc2ccc(N3CCN(C(=O)CO)CC3)c(F)c2)nc1-c1cnn(C(C)C)c1 .
Solution: 94%

Problem: # inhibition at 0.5 µM lookup, item Cc1cnc(Nc2ccc(N3CCC(N(C)C)CC3)c(F)c2)nc1-c1cnn(C(C)C)c1
Solution: 72%

Problem: Give the measured inhibition at 0.5 µM of COc1cc(Nc2ncc(C)c(-c3cnn(C(C)C)c3)n2)ccc1N1CCC(N(C)C)CC1 .
Solution: 90%
